- Test system: Human coronavirus 229E
- assayInfo: Antiviral activity against Human coronavirus 229E expressing luciferase reporter gene infected in Huh-7 cells assessed as reduction in viral replication incubated for 24 hrs by renilla luciferase based luminometer assay
- Type: functional, organism-based
- testContext: Huh-7, 24 h
pIC50: −log10 of the molar value.
Where pIC50 equals or exceeds 5, the correct label is 1; where it does not, the label is -1.

See these solved cases before continuing.
compound | qualitativeLabel
CCC(CC)COC(=O)[C@H](C)N[P@](=O)(OC[C@H]1O[C@@](C#N)(c2ccc3c(N)ncnn23)[C@H](O)[C@@H]1O)Oc1ccccc1 | 1
CC1(C)CCC[C@@]2(C)[C@H]1CC[C@@]1(CO)O[C@H](C3=CC(=O)OC3O)C[C@@H]12 (some centres not stated) | -1
CC(=O)OC[C@@]12CC[C@H]3C(C)(C)CCC[C@]3(C)[C@H]1C[C@@H](C1=CC(=O)OC1O)O2 (some centres not stated) | 1
CC1(C)CCC[C@@]2(C)[C@H]1CC[C@]1(CO)O[C@H](C3=CC(=O)OC3O)C[C@@H]12 (some centres not stated) | -1
CC1(C)CCC[C@@]2(C)[C@H]1CC[C@]13CO[C@@H]4OC(=O)C=C4[C@H](C[C@@H]12)O3 | -1

Exercise: Hi team, for CC1(C)CCC[C@@]2(C)[C@H]1CC[C@]13COC4(CC(=O)O[C@H]4O)[C@H](C[C@@H]12)O3 (some centres not stated) , is the recorded pIC50 at or above 5?
Solution: -1

Exercise: Determine whether this compound has pIC50 no lower than 5: CC1(C)CCC[C@@]2(C)[C@H]1CC[C@]1(O)COC(O)([C@@H](O)CC(=O)O)C[C@@H]12 (some centres not stated)
Solution: -1

----------
- assayInfo: Selectivity index, ratio of CC50 for cytotoxicity against African green monkey Vero E6 cells to IC50 for antiviral activity against SARS-CoV-2 infected in African green monkey Vero E6 cells
- Format: toxicity, cell-based
- testContext: read-out: Ratio CC50/IC50
observationType: selectivity ratio
Respond with the number and no other words.

Here's what some known entries look like.
compound | selectivity ratio
CC1(C)CCC[C@@]2(C)[C@H]1CC[C@]1(CO)O[C@H](C3=CC(=O)OC3O)C[C@@H]12 (stereo partly drawn) | 3.2
CCC(CC)COC(=O)[C@H](C)N[P@](=O)(OC[C@H]1O[C@@](C#N)(c2ccc3c(N)ncnn23)[C@H](O)[C@@H]1O)Oc1ccccc1 [REMDESIVIR] | 4

Switching to the query record.
Exercise: Fill in the blank: the reported selectivity ratio of `CC1(C)CCC[C@@]2(C)[C@H]1CC[C@]13CO[C@@H]4OC(=O)C=C4[C@H](C[C@@H]12)O3` is ____.
Solution: 2.1

----------
- assayInfo: Cytotoxicity against African green monkey Vero E6 cells assessed as reduction in cell viability incubated for 48 hrs by MTS assay
- Assay type: toxicity, cell-based, Vero C1008
- testContext: chlorocebus sabaeus
observationType: CC50 at 48 h (µM)
The reply should contain only the number, in µM.

Check out these entries, answers already filled in.
compound | valueMeasured
CC(=O)OC[C@@]12CC[C@H]3C(C)(C)CCC[C@]3(C)[C@H]1C[C@@H](C1=CC(=O)OC1O)O2 (some centres not stated) | 55.9
CC1(C)CCC[C@@]2(C)[C@H]1CC[C@]1(CO)O[C@H](C3=CC(=O)OC3O)C[C@@H]12 (some centres not stated) | 200

Exercise: Entry CC1(C)CCC[C@@]2(C)[C@H]1CC[C@@]1(CO)O[C@H](C3=CC(=O)OC3O)C[C@@H]12 (some centres not stated) : reported CC50 at 48 h = ?
Solution: 88.3

----------
- Tested on: SARS-CoV-2
- assayInfo: Antiviral activity against SARS-CoV-2 infected in African green monkey Vero E6 cells assessed as reduction in viral replication incubated for 48 hrs by Alexa Fluor 488 staining based flow cytometric analysis
- Type: functional, organism-based, Severe acute respiratory syndrome coronavirus 2
- testContext: Severe acute respiratory syndrome coronavirus 2, Vero C1008, 48 h; read-out: IC50
observationType: pIC50
Friendly reminder that pIC50 comes from taking -log10 of the concentration in mol/L.

Below, 2 compounds whose answers are already recorded.
compound | observationType | valueMeasured
CC1(C)CCC[C@@]2(C)[C@H]1CC[C@]1(CO)O[C@H](C3=CC(=O)OC3O)C[C@@H]12 (stereo partly drawn) | pIC50 | 5.20
CC1(C)CCC[C@@]2(C)[C@H]1CC[C@]13CO[C@@H]4OC(=O)C=C4[C@H](C[C@@H]12)O3 | pIC50 | 4.03

Turning to the following compound.
Exercise: GET /values?readout=pIC50&system=SARS-CoV-2&item= `CCC(CC)COC(=O)[C@H](C)N[P@](=O)(OC[C@H]1O[C@@](C#N)(c2ccc3c(N)ncnn23)[C@H](O)[C@@H]1O)Oc1ccccc1`
Solution: 4.60

----------
- assayInfo: Cytotoxicity against African green monkey Vero E6 cells assessed as reduction in cell viability incubated for 48 hrs by MTS assay
- Assay type: toxicity, cell-based, Vero C1008
- testContext: chlorocebus sabaeus
observationType: CC50 at 48 h

compound | CC50 at 48 h
CC1(C)CCC[C@@]2(C)[C@H]1CC[C@]13CO[C@@H]4OC(=O)C=C4[C@H](C[C@@H]12)O3 | > 200 µM
CC1(C)CCC[C@@]2(C)[C@H]1CC[C@]13COC4(CC(=O)O[C@H]4O)[C@H](C[C@@H]12)O3 (some centres undefined) | > 200 µM
CC1(C)CCC[C@@]2(C)[C@H]1CC[C@]1(O)COC(O)([C@@H](O)CC(=O)O)C[C@@H]12 (some centres undefined) | > 200 µM

Continue with the next compound.
Exercise: For the compound `CCC(CC)COC(=O)[C@H](C)N[P@](=O)(OC[C@H]1O[C@@](C#N)(c2ccc3c(N)ncnn23)[C@H](O)[C@@H]1O)Oc1ccccc1` , what CC50 at 48 h is on record?
Solution: > 100 µM
